- System: 786-0 renal
- Test description: NCI tumour cell line growth inhibition, 48 h; in the data active = GI50 below about 0.43 µM; inactive = the rest
Possible outcomes: YES for active, NO for inactive

Compound | Experimental system | Label class
COC(C)(C)[C@H](O)C(O)CC(C)[C@@H]1CCC23CC12CCC1[C@@]2(C)CCC(OC(C)=O)C(C)(C)C2CC(OC2OC(COC(C)=O)C(O)C(O)C2O)[C@]13C (some centres undefined) | 786-0 renal | NO
C/C(=C\c1ccn(-c2ccc(N)cc2F)n1)[C@@H]1C[C@@H]2O[C@]2(C)CCC[C@H](C)[C@H](O)[C@@H](C)C(=O)C(C)(C)[C@@H](O)CC(=O)O1 | 786-0 renal | YES
C[CH2][Sn]([CH2]C)([O]C(=O)c1ccc(F)cc1)[O][Sn]([CH2]C)([CH2]C)[O]C(=O)c1ccc(F)cc1 | 786-0 renal | NO
O=S(=O)(Nc1ccccn1)c1ccc(N=Nc2ccc(O)c3ncccc23)cc1 | 786-0 renal | NO

---

- Tested on: SNB-75 CNS
- Test description: NCI tumour cell line growth inhibition, 48 h
Measured attribute: TGI

Compound | Measured attribute | Readout value
C=C(CN(C)C)C(=O)c1ccc(Oc2ccccc2)cc1 | TGI | 35.5 µM
Cc1ccc(S(=O)(=O)Nn2c(O)c(C#N)c(-c3ccc(N(C)C)cc3)c(C#N)c2=O)cc1 | TGI | > 50 µM
COc1ccc(C)cc1Nc1nnc(-c2ccc(N)cc2)s1 | TGI | > 100 µM
COc1ccccc1NC(=O)C(CC(C(=O)Nc1ccccc1OC)/C(C)=N/NC(=O)c1ccccc1O)/C(C)=N/NC(=O)c1ccccc1O (stereo unspecified) | TGI | > 100 µM
CCCN1C(=O)CNC(=O)c2[nH]cnc21 | TGI | > 100 µM
COc1cc2c(cc1OCCCN1CCN(c3ncnc4ccccc34)CC1)N=CC1CCCN1C2=O (stereo unspecified) | TGI | 0.168 µM
CCOC(=O)c1cc(C#N)[nH]c1-c1ccsc1 | TGI | 97.4 µM
CN1CCN(CC(=O)N2c3cccc4cccc(c34)N(C(=O)CN3CCN(C)CC3)C2c2cn(-c3ccccc3)nc2-c2cccc([N+](=O)[O-])c2)CC1 | TGI | 2.71 µM
c1ccc2c(c1)[nH]c1c2ncc2[nH]c3ccccc3c21 | TGI | 12.1 µM
Cc1nc2sc(C(=O)Nc3cccc(Br)c3)c(N)c2cc1C(O)c1ccccc1 (stereo unspecified) | TGI | 4.15 µM
CSC1(CC(=O)N2CCCCC2)C(=O)Nc2ccccc21 (stereo unspecified) | TGI | > 100 µM
O=C(Cc1ccccc1)NS(=O)(=O)c1ccccc1 | TGI | > 100 µM
CC1=CC(=O)/C(=C/n2c(=S)[nH]c3ccc([N+](=O)[O-])cc32)C(=O)O1 | TGI | > 100 µM
OC(CC(O)(C(F)(F)F)C(F)(F)F)C(O)c1ccco1 (stereo unspecified) | TGI | > 10 µM
CCOC(=O)Nn1c(C)cc(C(=O)OC)c1C | TGI | > 100 µM
Nc1ccc(-c2ccc(-c3nc4cc(Cl)c(Cl)cc4[nH]3)cc2)cc1 | TGI | 55.9 µM
O=S(=O)(O)C(Cc1nc2ccccc2[nH]1)S(=O)(=O)OCCC1S(=O)(=O)OCCOS1(=O)=O (stereo unspecified) | TGI | > 100 µM
O=C(/C=C/c1ccc2c(c1)OCO2)CC(=O)/C=C/c1ccc2c(c1)OCO2 | TGI | > 100 µM
COc1cc2c3c(n(CCCN4CCCC(O)C4)c(=O)c2cc1OC)-c1cc2c(cc1C3=O)OCO2 (stereo unspecified) | TGI | 1.57 µM
O=C(N/N=C(\c1nc2ccc(Cl)cc2[nH]c1=O)C(O)c1ccccc1Cl)c1ccncc1 (stereo unspecified) | TGI | > 100 µM
CC#CC(=O)N1CC[C@@H](n2c(=O)n(-c3ccc(Oc4ccccc4)cc3)c3c(N)ncnc32)C1 | TGI | > 100 µM

---

- System: LOX IMVI melanoma
- Test description: NCI tumour cell line growth inhibition, 48 h
Please use fulfilled whenever TGI is not below 10 µM, and not fulfilled whenever it is.

Molecule | Experimental system | Label class
Cc1ccc2c(c1)C=CC(C#N)N2C(=O)Oc1ccccc1 (centres undefined) | LOX IMVI melanoma | fulfilled
COc1ccc2c(c1)CC[C@@H]1[C@@H]2CC[C@]2(C)C(=O)/C(=C/c3ccc(O)c(OC)c3)C[C@@H]12 | LOX IMVI melanoma | fulfilled
COC(=O)c1ccc(NCC2=CC(=O)C=CC2=O)cc1 | LOX IMVI melanoma | fulfilled
CCN(CC)CCCNc1ncc(C)c2c1c1ccc3c(O)cccc3c1n2C | LOX IMVI melanoma | not fulfilled
CC1=Nc2ccccc2C12C(c1ccccc1)C(c1ccccc1)C(=O)N1c3ccccc3CC12 (centres undefined) | LOX IMVI melanoma | fulfilled
C#Cc1cc(CN(CC(=O)OC(C)(C)C)CC(=O)OC(C)(C)C)nc(CN(CC(=O)OC(C)(C)C)CC(=O)OC(C)(C)C)c1 | LOX IMVI melanoma | not fulfilled
O=S(O)c1cc(Cl)cc(Cl)c1OCc1ccccc1 | LOX IMVI melanoma | fulfilled
O=S(=O)(O)C(Cc1nc2ccccc2[nH]1)S(=O)(=O)OCCC1S(=O)(=O)OCCOS1(=O)=O (centres undefined) | LOX IMVI melanoma | fulfilled
COc1cc(Nc2nc3cc(C(F)(F)F)ccc3nc2C)cc(OC)c1OC | LOX IMVI melanoma | fulfilled
COc1cccc(C2c3cc4c(cc3OC(N3CCCCC3)C2C)OCO4)c1OC (centres undefined) | LOX IMVI melanoma | fulfilled
Cc1ccc(S(=O)(=O)Nn2c(O)c(C#N)c(-c3ccc(N(C)C)cc3)c(C#N)c2=O)cc1 | LOX IMVI melanoma | fulfilled
O=[N+]([O-])c1cc2c(c([N+](=O)[O-])c1)Nc1ccccc1O2 | LOX IMVI melanoma | fulfilled
C=C(CN)CO[Si](C)(C)C(C)(C)C | LOX IMVI melanoma | fulfilled
O=C(O)[C@@H](NS(=O)(=O)c1ccc([N+](=O)[O-])cc1)c1ccccc1 | LOX IMVI melanoma | fulfilled
COC(=O)c1ccccc1C1CN=NC12Cc1cc(C)cc(C)c1C2=O (centres undefined) | LOX IMVI melanoma | fulfilled
N#CC(c1ccccc1)N(CCOCCOCCN(C(=O)c1cccc2ccccc12)C(C#N)c1ccccc1)C(=O)c1cccc2ccccc12 (centres undefined) | LOX IMVI melanoma | fulfilled
Nc1c2ccccc2nc2ccccc12 (tested in a mixture with another compound) | LOX IMVI melanoma | not fulfilled
COc1cccc(Nc2nc(N)nc(N)c2N=O)c1 | LOX IMVI melanoma | fulfilled
NC(CC(=O)O)(Cc1ccccc1)C(=O)O (centres undefined) | LOX IMVI melanoma | fulfilled

---

- Tested on: CAKI-1 renal
- Test description: NCI tumour cell line growth inhibition, 48 h
Kindly return 1 if reported TGI is no lower than 10 µM; return -1 if it is lower.

Compound | Label class
CCCCCCCCCCCCC(CCCCCCCCCCCC)OP(=O)(O)O | 1
CN(C)Cc1cc(/C=C/C(=O)c2ccc(Cl)c(Cl)c2)cc(CN(C)C)c1O | 1
CCOP(=O)(OCC)C(Nc1ccc(C(=O)O)cc1)c1ccc(C(Nc2ccc(C(=O)O)cc2)P(=O)(OCC)OCC)cc1 (stereo not given) | 1
O=C(CC(=O)N1N=C(N(c2ccccc2)c2ccccc2)CC1c1ccccc1)Nc1ccccc1 (stereo not given) | 1
CN(C)c1nc(=NCc2cccnc2)ss1 | 1
CC(C)NC(=O)OCc1c(COC(=O)NC(C)C)c(-c2ccc[n+](COC(=O)C(C)(C)C)c2)n2c1CCC2 | 1
C=C(CN(C)C)C(=O)c1ccc(Oc2ccccc2)cc1 | -1
COc1ccccc1NC(=O)C(CC(C(=O)Nc1ccccc1OC)/C(C)=N/NC(=O)c1ccccc1O)/C(C)=N/NC(=O)c1ccccc1O (stereo not given) | 1
COC(=O)[C@@]12C=CC(=O)[C@H]3C[C@@H](C(C(C)C)C1)[C@]32OC (stereo not given in full) | 1
O=Nc1c(NO)ccc2nn(-c3ccccc3)nc12 | 1
O=C(c1ccccc1)C1C[C@H]2CO[C@H](c3ccccc3)N2C1=O (stereo not given in full) | 1
Cc1ccc(S(=O)(=O)Nn2c(O)c(C#N)c(-c3ccc(N(C)C)cc3)c(C#N)c2=O)cc1 | 1
CC1=CC(=O)c2ccc(C)cc2C1=O | 1
Fc1cccc(-c2[nH]nc3nc(Nc4cccnc4)sc23)c1 | 1
Cc1ccc(/C=N/NS(=O)(=O)c2ccc(/C=C3\NC(=O)NC3=O)cc2)cc1 | 1
CCN(CC)CCCNc1ncc(C)c2c1c1ccc3c(O)cccc3c1n2C | -1
CC1=C[C@@H]2[C@@H](CC(CO)=C[C@H]3[C@@H]4C(C)(C)[C@]4(OCC(C)C)[C@H](OCC(C)C)[C@@H](C)[C@]23O)C1=O | -1
C[N+](C)(CCO)CCN1c2ccccc2Sc2ccccc21 | 1
COc1cc(/C=C2\C[C@H]3[C@@H]4CC=C5C[C@@H](OC(C)=O)CC[C@]5(C)[C@H]4CC[C@]3(C)[C@H]2OC(C)=O)ccc1OCCN1CCCCC1 | 1
